- assayed_target: Delta-type opioid receptor (Homo sapiens, UniProt P41143)
- Sequence (P41143 whole entry): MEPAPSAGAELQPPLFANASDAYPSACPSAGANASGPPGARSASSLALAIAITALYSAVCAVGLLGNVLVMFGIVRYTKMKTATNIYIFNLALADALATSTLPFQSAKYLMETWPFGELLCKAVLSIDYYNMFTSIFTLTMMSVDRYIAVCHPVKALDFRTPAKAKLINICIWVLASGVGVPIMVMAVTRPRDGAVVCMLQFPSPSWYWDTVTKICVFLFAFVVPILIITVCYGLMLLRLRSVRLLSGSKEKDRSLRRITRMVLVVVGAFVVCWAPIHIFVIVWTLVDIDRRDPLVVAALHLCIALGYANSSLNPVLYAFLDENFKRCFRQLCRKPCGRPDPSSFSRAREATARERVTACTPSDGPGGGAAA
- measurement_notes: Displacement of [125I]IOXY from human recombinant delta opioid receptor expressed in CHO cells
pKi: −log10 of the molar value.
outcome_measure: pKi

[
  {
    "molecule": "Oc1ccc2c(c1)[C@]13CCC[C@H](C1)N(CCc1ccccc1)C[C@@H]3O2 (relative stereo)",
    "observed": 5.60
  }
]

====

- assayed_target: Kappa-type opioid receptor (Homo sapiens)
- Sequence (P41145 whole entry): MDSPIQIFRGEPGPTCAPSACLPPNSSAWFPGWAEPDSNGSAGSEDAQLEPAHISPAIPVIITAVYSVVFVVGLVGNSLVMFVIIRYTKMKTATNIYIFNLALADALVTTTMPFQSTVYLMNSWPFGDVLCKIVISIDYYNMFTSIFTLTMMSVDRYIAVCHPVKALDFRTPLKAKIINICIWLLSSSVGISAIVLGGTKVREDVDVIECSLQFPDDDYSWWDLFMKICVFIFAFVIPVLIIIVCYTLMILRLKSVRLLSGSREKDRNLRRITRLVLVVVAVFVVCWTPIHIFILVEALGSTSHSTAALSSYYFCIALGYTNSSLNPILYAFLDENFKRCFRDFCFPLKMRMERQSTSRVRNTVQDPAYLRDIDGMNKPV
- measurement_notes: Displacement of [125I]IOXY from human recombinant kappa opioid receptor expressed in CHO cells
pKi: −log10 of the molar value.

[
  {
    "molecule": "Oc1ccc2c(c1)[C@]13CCC[C@H](C1)N(CCc1ccccc1)C[C@@H]3O2 (relative stereo)",
    "pKi": 6.25
  }
]
